test: Drug uptake in male Sprague-Dawley rat Dorsal skin assessed as retention rat at 1 mg/ml, TOP measured after 30 mins by LC-MS/MS analysis; type: ADME, tissue-based, Zone of skin; settings: in vivo, topical_or_ocular, 0.5 h
Drug uptake values, listed per item
observable: Drug uptake (%)

INSERT INTO measurements (compound, observed_value) VALUES
  ('N#Cc1ccc(O[C@H]2CC[C@H](NC(=O)c3ccc(C4CCN(CC5CN(c6ccc(C(=O)NC7CCC(=O)NC7=O)cc6)C5)CC4)cc3)CC2)cc1Cl (some centres undefined)', 1.23),
  ('O=C1CCC(NC(=O)c2ccc(N3CCN(CCCCc4ccc(F)cc4)CC3)cc2)C(=O)N1 (centres undefined)', 6.93),
  ('O=C1CCC(N2C(=O)c3cccc(NC4CCN(CC5CCN(c6ccc(C(F)(F)F)cc6)CC5)CC4)c3C2=O)C(=O)N1 (centres undefined)', 4.34),
  ('N#Cc1ccc(O[C@H]2CC[C@H](NC(=O)c3ccc(C4CCN(CC5CCCN(c6ccc(C(=O)NC7CCC(=O)NC7=O)cc6)C5)CC4)cc3)CC2)cc1Cl (some centres undefined)', 2.48);
